system: E-tag antibody; test: ELISA analysis of phage on antibody raised against ETAG (positive control); conditions: peptide binding to E-tag antibody; phage ELISA units read at 405 nm
Can you tell me ETAG (OD) for the items I'm about to list?
Give bare numbers, in OD.

                            sequence_string  recorded_value
0  VHSQGRMWAIPGLRGGTGAS (DGI-2-20R-3-D7; listed as Escherichia coli)            18.7
1  QMSRVAFSPGESWRRWVEGV (DGI-2-20R-3-A2; listed as Escherichia coli)            14.2
2  RWSICRGLQYSIPGCAVEDLSDVMA (DGI-2-20C-4-H316; listed as Escherichia coli)             7.2

We now examine a further sequence.
input: For the sequence LTPYSLARSWLSGRPSTGAT (DGI-2-20F-3-C12; listed as Escherichia coli) , give its reported ETAG (OD).
output: 15.1

----------
Molecular target: DGI-2 (Homo sapiens, UniProt Q15004)
Construct: encompassed the entire DGI-2 open reading frame (ORF); His-tag of vector pIVEX2.3-MCS (inferred from the vector and from the reverse primer lacking a stop codon); made in house; host or cells: cell-free in vitro translation (Rapid Translation System RTS, Roche; E. coli lysate)
Sequence (Q15004 1-111): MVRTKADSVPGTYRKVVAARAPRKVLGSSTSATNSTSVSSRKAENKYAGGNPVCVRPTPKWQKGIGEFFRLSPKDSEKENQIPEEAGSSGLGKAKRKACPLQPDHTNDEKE
Test: ELISA analysis of phage on DGI-2 polypeptide (specific binding)
Settings: binding to DGI-2 polypeptide (specific binding); phage ELISA units read at 405 nm
For each entry below, report its DGI-2 (OD) value.
Numbers only, in OD.

SEQUENCE STRING	UNIT ANNOTATION	RECORDED VALUE
TCWIHRGLNVVRYSVNFGVRDARLTTQGMAWFPPGCGQGCV (TCWHRGLNVVRYSVNFGVRDARLTTQGMAWFPPGCGQGCV; DGI-2-40F-4-E62; listed as Escherichia coli)	OD	4.6
GLRACDTYLGFCVGARRIDD (DGI-2-20F-3-B102; listed as Escherichia coli)	OD	2.4
MSSTAWTDRILQRGIGLGPV (DGI-2-20R-4-F1212; listed as Escherichia coli)	OD	4.0
LSLLSVVVRSMGASAPQRQV (DGI-2-20F-3-A7; listed as Escherichia coli)	OD	2.1
TSCQVMFLAGQHLLSRVPRL (DGI-2-20R-3-B6; listed as Escherichia coli) [DGL-2-20R-3-B6]	OD	2.8

For the 2 sequences below, give their DGI-2 (OD) values.
1. VGQSSGDARPLANLFVFPFV (DGI-2-20F-PP-F12; listed as Escherichia coli)
2. DRVARLATPTAGTMAAGSLGYERTVGCDSQDWFRCVVEGL (DGI-2-40F-3-D1044; listed as Escherichia coli)

output:
1. 2.1
2. 7.9

----------
system: E-tag antibody; assay: ELISA analysis of phage on antibody raised against ETAG (positive control); settings: peptide binding to E-tag antibody; phage ELISA units read at 405 nm
The label 1 is reserved for ETAG (OD) strictly under 10 OD; -1 covers values equal to or above it.

For orientation, consider the following solved cases.
SUBSTANCE	QUALITATIVE LABEL
VTGTRFRGFAVACVRMGTWH (DGI-2-20F-PP-F2; listed as Escherichia coli)	1
GLYRRAGDASVGFSRWGREDCQVYFSVECLLGSSWGGYS (GLYRRAGDASVGFSRWGRFDCQVYFSVECLLGSSWGGYS; DGI-2-40F-4-F12; listed as Escherichia coli)	1
RERWGTAWNLWTEGVVDVRP (DGI-2-20F-3-B5; listed as Escherichia coli)	-1
DQRVVGSGWFERLRNWYDRA (DGI-2-20R-4-G99; listed as Escherichia coli)	-1

input: Lab log: compare recorded ETAG (OD) with 10 OD; is it strictly lower for WGCVFRQWASGSGAGCARRH (DGI-2-20R-3-D9; listed as Escherichia coli) ?
output: -1

input: Consider LSLLSVVVRSMGASAPQRQV (DGI-2-20F-3-A7; listed as Escherichia coli) . Does its ETAG (OD) lie strictly below 10 OD?
output: 1

input: Please check: ETAG (OD) for S#ARSLMTGVVAVCIVWRGP (SARSLMTGVVAVCIVWRGP; DGI-2-20F-PP-E8; listed as Escherichia coli) , strictly under 10 OD or not?
output: -1

----------
Target: DGI-2 (Homo sapiens)
Construct: encompassed the entire DGI-2 open reading frame (ORF); His-tag of vector pIVEX2.3-MCS (inferred from the vector and from the reverse primer lacking a stop codon); made in house; host or cells: cell-free in vitro translation (Rapid Translation System RTS, Roche; E. coli lysate)
Sequence (Q15004 1-111): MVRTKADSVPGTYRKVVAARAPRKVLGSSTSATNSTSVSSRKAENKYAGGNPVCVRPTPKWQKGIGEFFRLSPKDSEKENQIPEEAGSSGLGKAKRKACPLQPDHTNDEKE
Assay: ELISA analysis of phage on DGI-2 polypeptide (specific binding)
Settings: ratio of specific binding to non-specific binding
Kindly note that classification relies on DGI-2/LDH (OD) with these boundaries: lower band: < 2; central band: ≥ 2 and < 5; upper band: ≥ 5

Completed entries (count: 4):
SUBSTANCE	QUALITATIVE LABEL
RRTQPAYRSGADDRTSGFYCYVTSALSAGAWMPFLPRRLA (DGI-2-40F-3-A12; listed as Escherichia coli)	lower band
GAIRLSGAAWTASRTGGRAS (DGI-2-20F-PP-E7; listed as Escherichia coli)	lower band
RMYNCHYIERLYDWHAGRJLLQDPA (RMYNCHYIERLYDWHAGRILLQDPA; not fully specified; non-natural residue J; DGI-2-20C-4-E926; listed as Escherichia coli)	central band
GGDLGEQGVQLCPDVVRGGSL (DGI-2-20F-PP-A7; listed as Escherichia coli)	central band

input: Kindly state the category for this substance: SSVWATWGSDLRTFGSVGFL (DGI-2-20F-PP-C7; listed as Escherichia coli)
output: central band

input: Just checking, what class would you give GRAGTSMTELVAWGFVQRVG (DGI-2-20F-PP-H10; listed as Escherichia coli) here?
output: lower band

----------
system: lactate dehydrogenase (LDH); experiment: ELISA analysis of phage on LDH (irrelevant, non-specific target); assay type: binding; conditions: peptide binding to LDH polypeptide (non-specific binding); phage ELISA units read at 405 nm
Please respond with reported LDH (OD) for every item in the list.
One number for each entry, in OD.

Examples from the recorded data:
>>> print(df.to_string())
                            sequence_string  unit_annotation  recorded_value
0  GITGLFCLCLRSSQSI (DGI-2-20F-PP-D6; listed as Escherichia coli) [DGI-2-20F-P0P-D6]               OD             1.0
1  FSSVLGLLDRRGVPVVVGED (DGI-2-20F-3-C3; listed as Escherichia coli)               OD             0.9

# next sequence below
input: Note LDH (OD) for the sequence shown: TPDRCLIYSSIQCLLEYSARRGSAD (DGI-2-20C-3-C65; listed as Escherichia coli)
output: 1.0

----------
Biological target: DGI-2 (Homo sapiens)
Construct: encompassed the entire DGI-2 open reading frame (ORF); His-tag of vector pIVEX2.3-MCS (inferred from the vector and from the reverse primer lacking a stop codon); made in house; host or cells: cell-free in vitro translation (Rapid Translation System RTS, Roche; E. coli lysate)
Sequence (Q15004 1-111): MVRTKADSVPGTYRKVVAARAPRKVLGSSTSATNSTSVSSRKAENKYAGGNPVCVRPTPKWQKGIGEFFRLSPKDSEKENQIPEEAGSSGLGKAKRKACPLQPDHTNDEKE
Assay: ELISA analysis of phage on DGI-2 polypeptide (specific binding)
Conditions: ratio of specific binding to non-specific binding
Assign class by DGI-2/LDH (OD): not lower than 2 means True; lower than 2 means False.

SUBSTANCE	QUALITATIVE LABEL
LTPYSLARSWLSGRPSTGAT (DGI-2-20F-3-C12; listed as Escherichia coli)	True
TPVAISIPAGVCSTSVCGRD (DGI-2-20F-PP-C11; listed as Escherichia coli)	True
VRAVYSRDAYNEVGRWMRVGI (DGI-2-20F-PP-D9; listed as Escherichia coli)	True
FGSTAYADMLSQFRKFAMNIS (DGI-2-20F-PP-E1; listed as Escherichia coli)	False
DSEA*RVWYSGFLRRLGHMC (DSEARVWYSGFLRRLGHMC; DGI-2-20F-PP-F7; listed as Escherichia coli)	True

input: Hi team, for TPDRCLIYSSIQCLLEYSARRGSAD (DGI-2-20C-3-C65; listed as Escherichia coli) , is the recorded DGI-2/LDH (OD) at or above 2?
output: False

input: Answer whether DGI-2/LDH (OD) of WRARSSGYLFALTPNFGVPHIPSSALRRMH.GLMARDLRPV [DGI-2-40F-3-C10] is greater than or equal to 2.
output: False

input: Please check the record VVGYAQGDGLEGGLGSSRDGS (DGI-2-20F-PP-D8; listed as Escherichia coli) and state if its DGI-2/LDH (OD) is at or above 2.
output: True

input: Quick check: does RRILPWSFPGCGRMC (DGI-2-20R-3-A10; listed as Escherichia coli) [DGJ-2-20R-3-A10] have DGI-2/LDH (OD) greater than or equal to 2?
output: True

input: Dear colleague, could you confirm whether HPWVTNMLVFQRPPPPGFWLSDTTPRQRNGLGQVERPSVD (DGI-2-40F-3-C7; listed as Escherichia coli) has DGI-2/LDH (OD) at or above 2?
output: False

input: Is the recorded value of DGI-2/LDH (OD) equal to or greater than 2 for this substance? DYKTCVSQHVHPLFGEYFYHKVTHMSILSPTFRVTSLYG.K (DYKTCVSQHVHPLFGEYFYHKVTHMSILSPTFRVTSLYGK; DGI-2-40F-3-B95; listed as Escherichia coli)
output: False

input: Item SWACGLLWPGECGSQVARRG (DGI-2-20R-3-D127; listed as Escherichia coli) with DGI-2/LDH (OD) of 2 or above?
output: True

input: Quick check: does VSGVPDGSMRAAQLASGYWC (DGI-2-20F-PP-G2; listed as Escherichia coli) have DGI-2/LDH (OD) greater than or equal to 2?
output: True

input: Does VVHTRAWGSWAYGFVLRNRG (DGI-2-20F-PP-F10; listed as Escherichia coli) have a reported DGI-2/LDH (OD) of at least 2?
output: True

input: Decide: is the reported value of DGI-2/LDH (OD) for TSCQVMFLAGQHLLSRVPRL (DGI-2-20R-3-B6; listed as Escherichia coli) [DGL-2-20R-3-B6] equal to or greater than 2?
output: True

input: hey, is DGI-2/LDH (OD) for this one >= 2? DRVARLATPTAGTMAAGSLGYERTVGCDSQDWFRCVVEGL (DGI-2-40F-3-D1044; listed as Escherichia coli)
output: True

input: // inclusive: DGI-2/LDH (OD) at least 2? input: VAFGEQJRVAMAGTLWQRWR (VAFGEQIRVAMAGTLWQRWR; not fully specified; non-natural residue J; DGI-2-20R-3-D5; listed as Escherichia coli)
output: False
